Values compiled from ChEMBL document CHEMBL1201862.

# System: HOP-92
# assay remarks: NCI tumour cell line growth inhibition, 48 h
Calls of active or inactive are those of the source. Rule as the data show it: active = GI50 up to about 1.1 µM and inactive = higher.
value type: GI50

Here is how some compounds turned out for GI50.
>>> reported_measurement("O=C(Cc1nc2ccccc2c(=O)n1-c1c(Cl)cccc1Cl)c1ccncc1")
"13.8 µM (inactive)"
>>> reported_measurement("Cc1c2c(c(C)c3c1[nH]c1ccccc13)CN(C)CC2")
"16.6 µM (inactive)"

Query string: Look at this compound and give its reported GI50. Nc1ncnc2c1ncn2C1C=C(CO)C(O)C1O (stereo not given)
Result string: 7.55 µM (inactive)

Query string: Then what about the compound CCCCCCCCCCCC1CC(=O)NCCCN(C)CCCCN(C)CCCN1C (stereo not given) ?
Result string: 1.39 µM (inactive)

Query string: Same question for CCCCCC(/C=C/[C@@H]1CC(=O)C[C@H]1O[Si](C)(C)C(C)(C)C)OCOCCOC (stereo not given in full) please.
Result string: 1.97 µM (inactive)

---

Measured GI50 accompanies every entry in the list below.
# System: ACHN
# assay remarks: NCI tumour cell line growth inhibition, 48 h
Calls of active or inactive are those of the source. No stated cut-off is given here; in the data, active = GI50 up to about 1.1 µM and inactive = higher.

Would you please look over these solved cases?
>>> reported_measurement("Cc1ccc2nc(-c3ccc(-c4nc5ccc(C)cc5o4)c(O)c3)oc2c1")
"> 100 µM (inactive)"
>>> reported_measurement("O=c1oc2ccc3ccccc3c2cc1-c1nnc(-c2ccc([N+](=O)[O-])cc2)[nH]1")
"42.2 µM (inactive)"
>>> reported_measurement("O=c1cc(N2CCOCC2)[nH]c(=O)n1-c1ccc(F)cc1")
"> 100 µM (inactive)"
>>> reported_measurement("O=C1C[C@@]23CCC4(CC2CCC[C@H]3O1)OCCO4 (stereo not given in full)")
"> 100 µM (inactive)"
>>> reported_measurement("Cc1ccc(C2=NN(C)COC2C(F)(F)F)cc1 (stereo not given)")
"> 100 µM (inactive)"
>>> reported_measurement("O=C1OC(c2ccco2)=N/C1=C\\c1ccc(Cl)c(Cl)c1")
"60 µM (inactive)"
>>> reported_measurement("COc1ccc2ccccc2c1C1NC(=O)c2ccccc2N1 (stereo not given)")
"1.26 µM (inactive)"
>>> reported_measurement("Cn1c(=S)c2nc(SCCN3C(=O)c4ccccc4C3=O)[nH]c2n(C)c1=O")
"> 100 µM (inactive)"

Query string: Which GI50 is reported for this molecule? "CCOC(=O)/C(=C/c1ccco1)P(=O)(OCC)OCC"
Result string: > 100 µM (inactive)

Query string: Repeat for the following molecule: "O=S(=O)(O)c1ccc2c(/N=N/c3ccc(Sc4ccc(/N=N/c5c(O)ccc6cc(S(=O)(=O)O)ccc56)cc4)cc3)c(O)ccc2c1"
Result string: > 100 µM (inactive)

---

# System: SF-539
# assay remarks: NCI tumour cell line growth inhibition, 48 h
Activity calls are given as the source filed them. Rule as the data show it: active = GI50 up to about 1.1 µM and inactive = higher.
value type: GI50

See these solved cases before continuing.
>>> reported_measurement("COC(=O)CNCC1OC2OC(C)(C)OC2C1N=[N+]=[N-] (centres undefined)")
"> 100 µM (inactive)"
>>> reported_measurement("N#Cc1cc(N(CCCl)CCCl)c([N+](=O)[O-])cc1[N+](=O)[O-]")
"> 100 µM (inactive)"
>>> reported_measurement("Nc1n[n+]2cc(-c3ccccc3)n(CC(=O)c3ccccc3)c2s1")
"20.1 µM (inactive)"
>>> reported_measurement("Cc1nc2c(n1-c1ccccc1)C(=O)c1ccccc1C2=O")
"41.7 µM (inactive)"
>>> reported_measurement("COc1ccc(-c2nc(-c3cnccn3)n(COCCO)n2)cc1")
"> 100 µM (inactive)"
>>> reported_measurement("CCOC(=O)C1N(S(=O)(=O)c2ccc(C)cc2)CCC12C(c1ccc(OC)cc1)NC1CCCCC12 (centres undefined)")
"55.7 µM (inactive)"

Query string: Need GI50, item "COC(=O)[C@@H](OC(C)=O)[C@@H](OC(C)=O)c1nnc2ccc(Cl)nn12"
Result string: > 100 µM (inactive)

Query string: Continue with "CC(C)(C)c1cc(C(OCCl)(C(F)(F)F)C(F)(F)F)c2c(c1)C(C(F)(F)F)(C(F)(F)F)OC21c2ccccc2C(=O)c2ccccc21"
Result string: > 100 µM (inactive)

Query string: Follow-up entry: "O=C1O[C@H](c2ccc3c(c2)OCO3)[C@H]2CO[C@@H](c3ccc4c(c3)OCO4)[C@@H]12"
Result string: > 100 µM (inactive)

---

# Tested on: M14
# assay remarks: NCI tumour cell line growth inhibition, 48 h
Active and inactive are the calls of the source. Rule as the data show it: active = GI50 up to about 1.1 µM and inactive = higher.
value type: GI50

Answered cases to consult:
>>> reported_measurement("COc1cc(CC(C)N)ccc1O (stereo unspecified)")
"> 100 µM (inactive)"
>>> reported_measurement("Nc1ncnc2c1ncn2C1C=C(CO)C(O)C1O (stereo unspecified)")
"9.57 µM (inactive)"
>>> reported_measurement("O=c1c2cccnc2[nH]c2ccc3cn[nH]c3c12")
"7.14 µM (inactive)"
>>> reported_measurement("CC1=C(C)CC2(C=C(C(C)(C)C)C(=O)C(C(C)(C)C)=C2)SC1")
"24.7 µM (inactive)"
>>> reported_measurement("O=C1c2c(n(Cc3ccccc3)c(=O)n2Cc2ccccc2)C(=O)N1Cc1ccccc1")
"> 100 µM (inactive)"

Continue with the compound presented below.
Query string: For "CCOC(=O)/C(=C\c1ccc[nH]1)C(=O)c1ccccc1" , what is its reported GI50?
Result string: > 100 µM (inactive)

---

# System: HOP-92
# assay remarks: NCI tumour cell line growth inhibition, 48 h
Activity calls are given as the source filed them. Rule as the data show it: active = GI50 up to about 1.1 µM and inactive = higher.
// one of Yes = active, No = inactive, no free text

Previously resolved entries follow.
>>> assigned_category("COc1ccc2c(c1)CCc1c-2[nH]c2ccc(OC)cc12")
"No"
>>> assigned_category("O=C(/C=C/c1ccccc1O)/C=C/c1ccccc1O")
"No"
>>> assigned_category("CCCC1NC(=O)C(CC(C)C)NC(=O)c2cccc(n2)C(=O)NC(CC(C)C)C(=O)NC(CCC)C(=O)NC(C(=O)OC)CCCCNC1=O (configuration not stated)")
"No"

Query string: Name the outcome recorded for "CSC1=N/C(=C\c2ccc(C)cc2)C(=O)N1CN1CCCCC1" in the assay.
Result string: No

Query string: Next: "CCOC(=O)n1ccc2c(C(=O)OC)c(C(=O)OC)cc(/C(=C/C(=O)OC)C(=O)OC)c21"
Result string: No

Query string: Now this one: "N#Cc1cc(N(CCCl)CCCl)c([N+](=O)[O-])cc1[N+](=O)[O-]"
Result string: No

Query string: Another compound to check: "O=C(Cn1ccnc1[N+](=O)[O-])N(CCO)CCO"
Result string: No

Query string: Request: "O=C(O)CNCCc1ccccc1"
Result string: No

Query string: Could you do the same for "CC(=O)/C(=C\NC(=S)Nc1ccc(S(N)(=O)=O)cc1)C(=O)Nc1ccccc1C" , please?
Result string: No

Query string: Ok, now CC(=O)c1ccc(OCC(O)CO)cc1 (configuration not stated)
Result string: No

Query string: Also "O=C(Cn1c(=O)oc2ccc(C(=O)c3ccc(F)cc3)cc21)c1ccc([N+](=O)[O-])cc1" , if possible.
Result string: No

---

# Test system: SNB-78
# assay remarks: NCI tumour cell line growth inhibition, 48 h
Activity calls are given as the source filed them. No stated cut-off is given here; in the data, active = GI50 up to about 1.1 µM and inactive = higher.
value type: GI50

See these solved cases before continuing.
>>> reported_measurement("c1ccc(C2Nc3ccccc3C3OCCCC23)cc1 (configuration not stated)")
"23.9 µM (inactive)"
>>> reported_measurement("CC1CN(c2ccc(Cl)cc2)CC(C)(C)OC(=O)O1 (configuration not stated)")
"> 100 µM (inactive)"
>>> reported_measurement("C=CCc1cc(OC)c2c(c1)C(O)CC(c1ccccc1)O2 (configuration not stated)")
"> 100 µM (inactive)"
>>> reported_measurement("Cc1cc(C)cc(NC(N)=S)c1")
"> 100 µM (inactive)"
>>> reported_measurement("C/C(=N\\OCC(O)CNC(C)C)c1ccc2c(c1)NC(=O)CS2 (configuration not stated)")
"> 100 µM (inactive)"

Query string: For the molecule "CC(C)(c1ccccc1)c1ccc(Oc2ccc(C#N)c(C#N)c2)cc1" , what GI50 is on record?
Result string: > 10 µM (inactive)

Query string: Entry CC(=O)c1ccc(OCC(O)CO)cc1 (configuration not stated) please
Result string: > 100 µM (inactive)

---

# System: LOX IMVI
# assay remarks: NCI tumour cell line growth inhibition, 48 h
Activity calls are given as the source filed them. Rule as the data show it: active = GI50 up to about 1.1 µM and inactive = higher.
value type: GI50

>>> reported_measurement("O=C1O[C@H](c2ccc3c(c2)OCO3)[C@H]2CO[C@@H](c3ccc4c(c3)OCO4)[C@@H]12")
"> 100 µM (inactive)"
>>> reported_measurement("COc1ccc2nc3cc(Cl)ccc3c(Sc3ccc([N+](=O)[O-])cc3)c2c1")
"> 10 µM (inactive)"
>>> reported_measurement("CC(CC(C)[C@H]1CCC2[C@H]3C(CC[C@@]21C)[C@@]1(C)CCC(O)C[C@H]1C[C@@H]3O)C(=O)O (stereo not given in full)")
"> 100 µM (inactive)"
>>> reported_measurement("CCOP(=O)(OCC)C(C)(CC)N/C(N)=N/C#N (stereo not given)")
"> 100 µM (inactive)"

Now for the compound whose GI50 we want.
Query string: For "Nc1ccc(-c2nc3ccccc3s2)cc1" , what is its reported GI50?
Result string: 16.8 µM (inactive)
